Reference source: PubChem BioAssay (NCI)

assay.name: NCI Yeast Anticancer Drug Screen. Data for the bub3 strain (AID 167)
cond: S. cerevisiae bub3 mutant strain, at 50.0 µM
Compounds without any hit were thinned out: in the full panel of roughly 79,000, 15% have a hit. Calls of active or inactive are those of the source. No stated cut-off is given here; in the data, active means growth inhibition above about 70%; inactive means the rest.
Permitted responses: active, inactive

Solved cases (5 shown):
molecule	category
O=C1c2ccccc2C(=O)c2sc(Nc3cccc(Cl)c3)nc21	active
CC1=NC2=NC(CCCC(=O)OCc3ccc(Cl)c(Cl)c3)=NC3=CC=CC(=N1)N32	inactive
C1CSCCCSCCCSCCCSCCCSC1	inactive
O=S(=O)(O)N=Nc1ccc(O)cc1	active
CC(=O)N(C1=C(Cl)C(=O)c2ccccc2C1=O)c1ccc(Cl)cc1	active

Write down the call the test reported for this molecule. Item: O=C(CC1(O)C(=O)Nc2c(Cl)ccc(Cl)c21)c1ccc(Cl)cc1Cl (configuration not stated)
active

Write down the call the test reported for this molecule. Item: CCS(=O)(=O)/C=C/c1ccc2ccccc2n1
inactive

* * *

assay.name: NCI Yeast Anticancer Drug Screen. Data for the cln2 rad14 strain (AID 165);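 further: 0% = growth equal to vehicle treated cultures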
cond: S. cerevisiae cln2 rad14 strain, at 50.0 µM
This is part of a sample that, as a whole, favours compounds with a hit. Of some 79,000 tested, about 15% had one in any assay. Calls of active or inactive are those of the source. Rule as the data show it: active = growth inhibition above about 70%; inactive = the rest.
Permitted responses: y = active, n = inactive

molecule	category
CCOC(=O)c1c(-c2ccccc2)csc1NC(=O)CBr	y
CCOC(=O)CCc1ccc(OC)c(OC)c1	n
CCCCc1ccc2nc(C)cc(N/N=C/c3ccc4c(c3)OCO4)c2c1	n
COc1ccc(/C=N/Nc2ccccc2)cc1	y
Cc1ccc(N=NC(C(=O)c2ccccc2)C(=O)c2ccccc2)cc1	y
Cc1cccc2cc3c(cc12)c(C)cc1ccccc13	n
CCOC(=O)C(C(C)=O)C1=C(Cl)C(=O)c2ccccc2C1=O (stereo not given)	y
O=C1C(c2ccccc2)=S=C2C=CC=CN12	n

Write down the call the test reported for this molecule. Item: O=C1C=CC(=O)c2c(O)c(N3CCN(CCO)CC3)c(Cl)c(O)c21
y

Write down the call the test reported for this molecule. Item: Cc1ccc(I)c(C(C)(C)O)c1
n

* * *

Task for the reader: assign each of the following molecules its reported growth inhibition.
assay.name: NCI Yeast Anticancer Drug Screen. Data for the rad50 strain (AID 155);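 further: 0% = growth of vehicle-only cultures of the same strain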
cond: S. cerevisiae rad50 strain growth inhibition; at 50.0 µM; active compounds read high
The panel holds about 79,000 compounds, 15% with a hit somewhere; the sample as a whole holds those more often. Activity calls are given as the source filed them. Cut-off read from the data, not from the text of the source: active = growth inhibition above about 70%; inactive = the rest.

molecular.string	experimental.endpoint	assay.result
COc1ccc(-n2c(=O)c3[nH]c(=S)[nH]c3n(-c3ccc(OC)cc3)c2=S)cc1	growth inhibition	25.5% (inactive)
CN(C)C(=O)SC1=C(c2c(Cl)cccc2Cl)C(=O)c2ccccc21	growth inhibition	66.3% (inactive)
CN(C(=S)c1ccccc1)c1ccccc1	growth inhibition	97.4% (active)

Hey, can you go through the list below and give me growth inhibition for every item?
1. COc1ccc(/C=C/c2c[n+]([O-])ccc2[N+](=O)[O-])cc1
2. Oc1ccc(/C=N/NC(=S)Nc2ccccc2)nc1
3. N#Cc1c(SCc2ccc(Cl)cc2)nsc1Nc1ccc(Cl)cc1

1: 77% (active); 2: 82.8% (active); 3: 86.2% (active)

* * *

assay.name: NCI Yeast Anticancer Drug Screen. Data for the sgs1 mgt1 strain (AID 161);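 further: 0% = growth of cultures given vehicle only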
cond: S. cerevisiae sgs1 mgt1 strain, at 5.0 µM (retest, dose inferred, filed as 0.5)
The panel holds about 79,000 compounds, 15% with a hit somewhere; the sample as a whole holds those more often. Activity calls are given as the source filed them. Cut-off read from the data, not from the text of the source: active = growth inhibition above about 70%; inactive = the rest.
Permitted responses: true = active, false = inactive

Solved cases (3 shown):
compound	category
CCCCC(=O)N/N=C/c1ccc([N+](=O)[O-])s1	false
c1ccc(/C(=N\Nc2nc3ccccc3s2)c2ccccn2)cc1	false
COC1C=COC2(C)Oc3c(C)c(O)c4c(O)c(c(C5SCCS5)c(O)c4c3C2=O)NC(=O)/C(C)=C\C=CC(C)C(O)C(C)C(O)C(C)C(OC(C)=O)C1C (stereo not given)	false

Write down the call the test reported for this compound. Item: CCCCOc1c(OCCCC)c(=O)c1=O
false

Write down the call the test reported for this compound. Item: CC(C)c1ccc2nc3ccc(C(=O)NCCN4CCN(c5ccccc5)CC4)cn3c(=O)c2c1
false

Write down the call the test reported for this compound. Item: CN1C(=O)C2N(C(=O)C1(C)S)c1ccccc1C2(C)C (stereo not given)
false

Write down the call the test reported for this compound. Item: Cc1ccc(O)c(Cc2ccccc2Cl)c1
false

Write down the call the test reported for this compound. Item: O=C1C2=Cc3ccccc3CCN2c2ccccc21
false

Write down the call the test reported for this compound. Item: [N-]=[N+]=Nc1ccc(SSCCC(=O)ON2C(=O)CCC2=O)cc1
false

Write down the call the test reported for this compound. Item: O=C(Nc1cccc(Br)c1)Oc1cccc2cccnc12
true

Write down the call the test reported for this compound. Item: CCCCn1cnc2c(SCc3ccc(F)cc3)nc(N)nc21
false

Write down the call the test reported for this compound. Item: c1ccc(-c2cnc3nc4ccccc4nc3n2)cc1
false

Write down the call the test reported for this compound. Item: CCOC(=O)NC(NC(=O)OCC)C(=O)Nc1cccc2c(OC(=O)C(NC(=O)OCC)NC(=O)OCC)c(N=Nc3ccc(S(=O)(=O)Nc4nccs4)cc3)cc(N=Nc3ccc(S(=O)(=O)Nc4nccs4)cc3)c12 (tested in a mixture with another compound)
true

Write down the call the test reported for this compound. Item: CCCN1C(=O)c2ccccc2C1=O
false

Write down the call the test reported for this compound. Item: Cc1cc(O)c2c(c1)C(=O)c1c(c(O)cc(O)c1-c1c(O)cc(O)c3c1C(=O)c1cc(C)cc(O)c1C3=O)C2=O
false

Write down the call the test reported for this compound. Item: Cn1c2c(c3ccccc31)CCN1C[C@@H]3CCCC[C@H]3C[C@@H]21
false

Write down the call the test reported for this compound. Item: CCCCCCCCC(C)c1ccccc1O (stereo not given)
false

Write down the call the test reported for this compound. Item: CC(=O)Nc1ccc2c(c1)C(=O)c1cccc(F)c1-2
false

Write down the call the test reported for this compound. Item: C[C@]12CC[C@H](O)C[C@@H]1CC[C@@H]1[C@@H]2C(=O)C[C@]2(C)C3=CC(=O)O[C@H]3C[C@@H]12
false

Write down the call the test reported for this compound. Item: Cn1cc(NC(=O)c2cc(NC(=O)CCCCCCCC(=O)Nc3cc(C(=O)Nc4cc(C(=O)NCCC(=N)N)n(C)c4)n(C)c3)cn2C)cc1C(=O)NCCC(=N)N
true

* * *

assay.name: NCI Yeast Anticancer Drug Screen. Data for the cln2 rad14 strain (AID 165);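 further: 0% = growth equal to vehicle treated cultures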
cond: S. cerevisiae cln2 rad14 strain, at 5.0 µM (retest, dose inferred, filed as 0.5), active compounds read high
This is part of a sample that, as a whole, favours compounds with a hit. Of some 79,000 tested, about 15% had one in any assay. Calls of active or inactive are those of the source. Rule as the data show it: active = growth inhibition above about 70%; inactive = the rest.
experimental.endpoint: growth inhibition

compound	growth inhibition
NNc1c(Cl)c(F)c(Cl)c(F)c1Cl	13% (inactive)

Hey, can you go through the list below and give me growth inhibition for every item?
1. Cc1ccc(S(=O)(=O)Nc2ccc3c(c2)Cc2cc([N+](=O)[O-])ccc2-3)cc1
2. Clc1cccc(N2CCN(c3c4c(nc5ccccc35)CCCCC4)CC2)c1
3. CC1(C)N=C(N)N=C(N)N1c1cccc(CCCCC(=O)CCl)c1

45% (inactive)
28% (inactive)
-5% (inactive)

Hey, can you go through the list below and give me growth inhibition for every item?
1. CC(C)(C)N/N=C(\C(=O)NC1=C(Cl)C(=O)c2ccccc2C1=O)C1C=CCS1(=O)=O (stereo not given)
2. CC12CC(Br)(Br)C(=O)C3C1CCCC32
3. CC(C)(C)CC(C)(C)c1ccc(O)c(O)c1
4. Cc1c2c(c(C)c3ccncc13)S(=O)(=O)c1ccccc1-2
5. CCC(=O)c1ccc2ccc3ccccc3c2c1
6. CC(C)(C)C(=O)CC(=O)C(F)(F)C(F)(F)C(F)(F)F.CC(C)(C)C(=O)CC(=O)C(F)(F)C(F)(F)C(F)(F)F.CC(C)(C)C(=O)CC(=O)C(F)(F)C(F)(F)C(F)(F)F.[Fe]

-26% (inactive)
49% (inactive)
55% (inactive)
39% (inactive)
4% (inactive)
13% (inactive)

* * *

Task for the reader: assign each of the following compounds its reported growth inhibition.
assay.name: NCI Yeast Anticancer Drug Screen. Data for the cln2 rad14 strain (AID 165);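 further: 0% = growth equal to vehicle treated cultures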
cond: S. cerevisiae cln2 rad14 strain, at 5.0 µM (retest, dose inferred, filed as 0.5), active compounds read high
The panel holds about 79,000 compounds, 15% with a hit somewhere; the sample as a whole holds those more often.
One number for each entry, in %.

Consider the reported growth inhibition for these compounds:
compound	growth inhibition / %
CCOC(=O)C(=O)Nc1ccc(Cl)cc1Cl	14
C/C(=N\NC(=S)N1CCN(Cc2ccccc2)CC1)c1ccccn1	8
Cc1cc([N+](=O)[O-])cc(Cl)c1O	7

Hey, can you go through the list below and give me growth inhibition for every item?
1. c1coc(C2=Nc3cccc4cccc(c34)N2)c1
2. O=C(C=P(c1ccccc1)(c1ccccc1)c1ccccc1)CC(=S)CC(=O)C=P(c1ccccc1)(c1ccccc1)c1ccccc1
3. CC1C=C(COC(=O)Nc2ccccc2)ON1c1ccccc1 (stereo unspecified)

1. 4
2. -3
3. -4
